Tested on: HIV-1
test-details: microbe, parasite or virus in culture
Format: cell-based, HIV-1 (H9IIIB or NL4-3 virus)
measurement-parameters: Human immunodeficiency virus 1, read-out: WILD TYPE CELL ASSAY Viking IP (0% NHS) (nM)
quantity-kind: IC50

Observe how each entry below is paired with its result.
{"compound": "CCN1C[C@H]2C[C@H](NS(C)(=O)=O)c3c(C(=O)NCc4ccc(F)c(F)c4F)c(=O)c(O)c(n32)C1=O [Compound 49]", "IC50": "11 nM"}
{"compound": "CCN[C@H]1C[C@@H]2CN(CC)C(=O)c3c(O)c(=O)c(C(=O)NCc4ccc(F)cc4F)c1n32 [Compound 11]", "IC50": "2 nM"}
{"compound": "CCN[C@H]1C[C@@H]2CN(CC)C(=O)c3c(O)c(=O)c(C(=O)NCc4c(F)cc(F)cc4F)c1n32 [Compound 13]", "IC50": "7 nM"}

Entry CCN[C@@H]1C[C@@H]2CN(CC)C(=O)c3c(O)c(=O)c(C(=O)NCc4c(F)cc(F)cc4F)c1n32 [Compound 14] , IC50 reported as 6 nM

Record CCN1C[C@H]2C[C@@H](NC(C)=O)c3c(C(=O)NCc4ccc(F)cc4F)c(=O)c(O)c(n32)C1=O [Compound 55] , field IC50: 8 nM

// field: IC50; key: CCN1C[C@H]2C[C@H](NS(C)(=O)=O)c3c(C(=O)NCc4ccc(F)c(Cl)c4F)c(=O)c(O)c(n32)C1=O [Compound 51] ; value = 9 nM
